Data origin: the supplement of paper PMC13380429

For each of the compounds below, state its inhibition of SARS-CoV-2 cytopathic effect.
Tested on: Vero E6 infected with SARS-CoV-2
Test: inhibition of SARS-CoV-2 cytopathic effect; higher = more antiviral protection, active = above 15
Conditions: 8.33 nM; 48 h
Give just the number in %; leave the unit off.

Q: Using the record for Clc1ccc(C(Cn2ccnc2)OCc2c(Cl)cccc2Cl)c(Cl)c1 (stereo not given) , report its inhibition of SARS-CoV-2 cytopathic effect.
A: 0.08

Q: Try this compound next: C[n+]1cccc(C(=O)[O-])c1
A: 3.85

Q: Try this compound next: COc1ccc(-c2ccc(=N)n(CCCC(=O)O)n2)cc1
A: 2.86

Q: Try this compound next: CCCC(=O)Nc1cccc(NC(=O)c2ccccc2Br)c1
A: 1.45

Q: Try this compound next: COC(=O)[C@H](NC(=O)c1cc(-c2ccccc2)nc2ccccc12)c1ccccc1
A: 2.5

Q: Try this compound next: NS(=O)(=O)c1cc2c(cc1C(F)(F)F)NC(Cc1ccccc1)NS2(=O)=O (stereo not given) [bendroflumethiazide]
A: -3.12

Q: Try this compound next: CC1(N2CCC(n3c([C@@H]4CCCNC4)nc4ccccc43)CC2)CCCCCCC1
A: 0.4

Q: Try this compound next: CN(C)c1cccc(Oc2cnc(Nc3cccc(O)c3)nc2)c1
A: 0.57

Q: Try this compound next: CCCCCC(C)N (stereo not given)
A: 1.95

Q: Try this compound next: COc1ccc(CCc2nc3cc(-c4c(C)noc4C)ccc3n2C[C@H](C)N2CCOCC2)cc1Cl
A: 1.61

---

Tested on: Vero E6 infected with SARS-CoV-2
Assay: inhibition of SARS-CoV-2 cytopathic effect; higher = more antiviral protection, active = above 15
Details: 1 nM; 48 h
For each of the compounds below, state its inhibition of SARS-CoV-2 cytopathic effect.
Give just the number in %; leave the unit off.

Q: Using the record for CCOC(=O)c1ccccc1OC(N)=O [ethyl-2-(carbamoyloxy)benzoate] , report its inhibition of SARS-CoV-2 cytopathic effect.
A: -8.28

Q: Try this compound next: CC(C)(C)NCC(O)c1cc(Cl)c(N)c(C(F)(F)F)c1 (stereo not drawn)
A: -0.03

Q: Try this compound next: Cc1c(C(=O)NN2CCCCC2)nn(-c2ccc(Cl)cc2Cl)c1-c1ccc(I)cc1
A: 0.54

Q: Try this compound next: C[C@H](c1ccc(F)cc1CCCC(=O)O)N(c1cc(F)ccc1F)S(=O)(=O)c1ccc(Cl)cc1
A: -1.95

Q: Try this compound next: C=CC[C@@H]1/C=C(\C)C[C@H](C)C[C@H](OC)[C@H]2O[C@@](O)(C(=O)C(=O)N3CCCC[C@H]3C(=O)O[C@H](/C(C)=C/[C@@H]3CC[C@@H](O)[C@H](OC)C3)[C@H](C)[C@@H](O)CC1=O)[C@H](C)C[C@@H]2OC
A: 0.97

Q: Try this compound next: O=[N+]([O-])c1ncc[nH]1
A: 1.8

Q: Try this compound next: Cc1cc(OCc2nnc(SC3CCCC3)n2-c2cccnc2)ccc1-c1ccc(S(C)(=O)=O)cc1
A: -0.48

Q: Try this compound next: NC[C@H]1O[C@H](O[C@H]2[C@H](O)[C@@H](O[C@H]3O[C@H](CO)[C@@H](O)[C@H](N)[C@H]3O)[C@H](N)C[C@@H]2N)[C@H](O)[C@@H](O)[C@@H]1O
A: 1.47

---

Test system: Vero E6 infected with SARS-CoV-2
Assay: inhibition of SARS-CoV-2 cytopathic effect; higher = more antiviral protection, active = above 15
Conditions: 833.33 nM; 48 h
Endpoint Label: inhibition of SARS-CoV-2 cytopathic effect (%)
Give just the number in %; leave the unit off.

Q: Find inhibition of SARS-CoV-2 cytopathic effect (Vero E6 infected with SARS-CoV-2) for the entry N#CC(Cc1ccc(O)cc1)c1ccc(O)cc1 (stereo not given)
A: -3.56

Q: Try this compound next: CC1(C)S[C@@H]2[C@H](NC(=O)C(C(=O)O)c3ccccc3)C(=O)N2[C@H]1C(=O)O (stereo not given in full)
A: 2.42

Q: Try this compound next: CCCCCCCCCCCCCC[C@@H](O)[C@@H](O)[C@@H](N)CO
A: -3.05

Q: Try this compound next: CCCCc1ccc(NS(=O)(=O)c2ccc(F)cc2)cc1
A: -3.93

Q: Try this compound next: CC(C)C[C@@H](N)C1(c2ccc(Cl)cc2)CCC1
A: -1.42

---

Test system: Vero E6 infected with SARS-CoV-2
Experiment: inhibition of SARS-CoV-2 cytopathic effect; higher = more antiviral protection, active = above 15
Conditions: 10000 nM; 48 h
Endpoint Label: inhibition of SARS-CoV-2 cytopathic effect (%)
Give just the number in %; leave the unit off.

Q: Using the record for Cc1n[nH]c2ccc(-c3cncc(OC[C@@H](N)Cc4ccccc4)c3)cc12 , report its inhibition of SARS-CoV-2 cytopathic effect.
A: -13.2

Q: Try this compound next: CCN(CCO)CCCC(C)Nc1ccnc2cc(Cl)ccc12 (stereo not given) [hydroxychloroquine]
A: -0.85

Q: Try this compound next: O[C@@H](CN1CCC(Cc2ccc(F)cc2)CC1)c1ccc(Cl)cc1 (racemic)
A: -0.42

Q: Try this compound next: CN1CCN(c2cccc(Nc3nc4c(-c5ccc(S(C)(=O)=O)cc5)cccn4n3)c2)CC1
A: -4.01

Q: Try this compound next: CN(C)C/C=C/C(=O)Nc1ccc(C(=O)Nc2cccc(Nc3ncc(Cl)c(-c4c[nH]c5ccccc45)n3)c2)cc1
A: -8.5

---

For each of the molecules below, state its inhibition of SARS-CoV-2 cytopathic effect.
System: Vero E6 infected with SARS-CoV-2
Test: inhibition of SARS-CoV-2 cytopathic effect; higher = more antiviral protection, active = above 15
Conditions: 10000 nM; 48 h
Give just the number in %; leave the unit off.

Q: Find inhibition of SARS-CoV-2 cytopathic effect (Vero E6 infected with SARS-CoV-2) for the entry COc1cc(NS(=O)(=O)c2ccc(N)cc2)ncn1
A: 1.17

Q: Try this molecule next: CSc1ccc(OCc2ncc([N+](=O)[O-])n2C)cc1
A: -0.36

Q: Try this molecule next: CCCN1CCN(c2ccc(C(=O)NC3(C(=O)NCC#N)CCCCC3)cc2)CC1
A: 10.8

Q: Try this molecule next: Cc1ccccc1C(OCCN(C)C)c1ccccc1 (stereo not given)
A: -0.73

Q: Try this molecule next: CCOC(=O)[C@H](CCc1ccccc1)N[C@@H](C)C(=O)N1CCC[C@H]1C(=O)O
A: 0.52

Q: Try this molecule next: O=C(NOCCO)c1ccc2cncn2c1Nc1ccc(I)cc1F
A: -13.2

Q: Try this molecule next: CC1=C(C(=O)O)N2C(=O)[C@@H](NC(=O)[C@H](N)c3ccccc3)[C@H]2SC1
A: -3.66

Q: Try this molecule next: Cn1nnc2c(C(N)=O)ncn2c1=O [temozolomide]
A: -1.79

Q: Try this molecule next: O[C@@H]1CO[C@H]2[C@@H]1OC[C@@H]2O [isosorbide]
A: 3.05

Q: Try this molecule next: Cc1ccc(S(N)(=O)=O)cc1 [para-toluenesulfonamide]
A: -5.38

---

Tested on: Vero E6 infected with SARS-CoV-2
Experiment: inhibition of SARS-CoV-2 cytopathic effect; higher = more antiviral protection, active = above 15
Details: 1 nM; 48 h
Endpoint Label: inhibition of SARS-CoV-2 cytopathic effect (%)
Give just the number in %; leave the unit off.

Q: Using the record for CN(C)C(=O)C(=O)c1cn(C)c2cc(Cl)c(C(=O)N3CCC(Cc4ccc(F)cc4)CC3)cc12 , report its inhibition of SARS-CoV-2 cytopathic effect.
A: 2.15

Q: Try this compound next: CCCCCN(CCCOC)C(=O)[C@@H](CCC(=O)O)NC(=O)c1ccc(Cl)c(Cl)c1 [dexloxiglumide]
A: -5.32

Q: Try this compound next: CCN1C(=O)CNc2ncc(-c3ccc(-c4nc[nH]n4)nc3C)nc21
A: 2.11

Q: Try this compound next: Nc1nc(N)c2nc(-c3ccccc3)c(N)nc2n1
A: 0.51

Q: Try this compound next: O=C(Nc1c[nH]nc1-c1nc2ccc(CN3CCOCC3)cc2[nH]1)NC1CC1
A: 0.02

Q: Try this compound next: COC(=O)C1=C(C)N(C)C(C)=C(C(=O)OC)C1c1ccc(C(F)(F)F)cc1
A: 1.98

Q: Try this compound next: CC(=O)O[C@H]1C[C@@H]2CC[C@@H]3[C@H](CC[C@@]4(C)[C@H]3C[C@H](N3CC[N+](C)(C)CC3)[C@@H]4OC(C)=O)[C@@]2(C)C[C@@H]1N1CC[N+](C)(C)CC1
A: -1.2

Q: Try this compound next: O=C(NCC1CCOCC1)c1cnc(Nc2ccc(Cl)cc2Cl)nc1C(F)(F)F
A: -0.74

Q: Try this compound next: Cc1nc(Nc2ccc(F)cc2)nc(N2CCc3ccccc3C2C)c1C (stereo not given)
A: 0.41

Q: Try this compound next: NC(=O)C[C@H](N)C(=O)O
A: -2.05
